biological target: T1, human GFRα3 expressed with a C-terminal myc-myc-hexahistidine tag (human, UniProt O60609 32-374, biotinylated (sites not given) in ELISA format 2 and in the Octet cross-competition; not in SPR); experiment: Octet cross-competition; biotin-hGFRα3-mmH pre-saturated with first antibody H4H2294S
T1 construct: also called hGFRα3-mmh; hGFRα3-mmH
T1 sequence (O60609 other isoform, or with tags, fused parts or gaps limits assumed): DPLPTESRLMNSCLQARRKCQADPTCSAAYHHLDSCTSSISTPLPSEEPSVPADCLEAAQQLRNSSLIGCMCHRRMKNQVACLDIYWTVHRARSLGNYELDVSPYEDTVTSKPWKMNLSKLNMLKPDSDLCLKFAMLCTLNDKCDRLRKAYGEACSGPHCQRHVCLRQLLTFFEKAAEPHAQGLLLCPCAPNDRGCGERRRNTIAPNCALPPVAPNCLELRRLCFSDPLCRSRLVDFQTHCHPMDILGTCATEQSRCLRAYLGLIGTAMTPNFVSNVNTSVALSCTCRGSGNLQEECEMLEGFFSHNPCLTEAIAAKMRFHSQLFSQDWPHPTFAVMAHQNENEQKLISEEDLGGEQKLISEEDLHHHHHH
Here, each record is paired with measured binding response of second antibody (nm) data.
Answer with a number only, understood to be in nm.

Some solved entries appear below for comparison.
1) H4H2352S (antibody, human IgG4, V domains shown, human IgG4 Fc (H4H); also called H4H2352S-1) VH: EVQLVQSGAEVKKPGASVKVSCKASGYTFTNYGITWVRQAPGQGLEWMGWISAYNGNTGYAQKFQGRVTMTTDTSTSTAYMELRSLRSDDTAVYYCAREDYDFWRAFDIWGQGTMVTVSS VL: EIVLTQSPGTLSLSPGERATLSCRASQSVSSTYLAWLQQKPGQAPRLLIYGASSRATGIPDRFSGSGSGTDFTLTINRLEPEDFAVYYCQQYAYSPYTFGQGTKLEIK; 1.99
2) H4H2236N3 (antibody, human IgG4, V domains shown, human IgG4 Fc (H4H)) VH: EVQLLESGGNLVQPGGSLRLSCAASGFTFSSYAMTWVRQAPGKGLEWVSTISGSGTSTYYADSVKGRFTISRDNSRDTVFLQMNSLRAEDTAVYYCSKPSALRFLHWLAMDVWGQGTLVTVSS VL: DIQMTQSPSSLSAFVGDRVTITCRASQDIRNYLDWFQQKPGKAPKSLIYAASNLQSGVPSRFGGSGSGTDFTLTINSLQPEDFVTYYCQQYNSYPPTFGGGTKVEIK; 0.05
3) H4H2350P (antibody, human IgG4, V domains shown, human IgG4 Fc (H4H)) VH: QVQLQESGPGLVKPSETLSLTCTVSGGSISTYYWSWFRQPPGKGLEWIGYIYYSGSTNHNPSLKSRVTISVDTSKNQFSLKLRSVTAADTAVYYCARVGPVGWGSWGNFDYWGQGTLVTVSS VL: DIQLTQSPSFLSASVGDRVTITCWASQGISSYLAWSQQKPGKAPKLLIYAASTLQSGVPSRFSGSGSGTEFTLTISSLQPEDFATYYCQQLNSYPWTFGQGTKVEIK; 1.42

Proceed to the following item.
Task item: Please look up its binding response of second antibody (nm): H4H2294S (antibody, human IgG4, V domains shown, human IgG4 Fc (H4H)) VH: EVQLVESGGGLVQPGGSLRLSCAASGFTFSSYAMSWVRQAPGKGLEWVSVISGSGGSTYYADAVKGRFTISRDNSKHTLYLQMNSLRAEDTAVYYCTKPSSYSSSNFYYGMDVWGQGSTVTVSS VL: DIQLTQSPSSVSASVGDRVTITCRASQGISSWLAWYQQKPGKAPKLLIYAASSLQSGVPSRFSGSGSGTDFTLTISSLQPEDFATYYCQQTNSFPFPFGPGTKVDIK
Reply: 0.02
